Test: Pharmacokinetic study in rats after oral administration of the CP extract (UPLC–TQ-MS/MS of plasma)
Assay type: in vivo
Details: male, Sprague-Dawley; rat plasma, single oral gavage of CP extract 10.5 g/kg, n=6, mean ± SD
value.type: half-life

[Q] Input O=c1c(O)c(-c2ccc(O)c(O)c2)oc2cc(O)cc(O)c12 [Quercetin, quercetin] , output reported half-life.
[A] 11.7 h

[Q] Kindly indicate its recorded half-life. Item: O=C(/C=C/c1ccc(O)c(O)c1)O[C@@H]1C[C@@](O)(C(=O)O)C[C@@H](O)[C@@H]1O [Neochlorogenic acid, neochlorogenic acid]
[A] 4.54 h

[Q] Identify measured half-life associated with O=C(O)[C@H]1O[C@@H](Oc2c(-c3ccc(O)c(O)c3)oc3cc(O)cc(O)c3c2=O)[C@H](O)[C@@H](O)[C@@H]1O [Quercetin-3-O-glucuronide, quercetin-3-O-glucuronide]
[A] 10 h

[Q] Tell me half-life reported for O=c1c(O)c(-c2ccc(O)cc2)oc2cc(O)cc(O)c12 [Kaempferol, kaempferol]
[A] 7.24 h

[Q] Give half-life for the following molecule: O=C(/C=C/c1ccc(O)c(O)c1)O[C@@H]1C[C@](O)(C(=O)O)C[C@@H](O)[C@H]1O [Chlorogenic acid, chlorogenic acid]
[A] 2.54 h

###

Assay: Pharmacokinetic study in rats after oral administration of the CP extract (UPLC–TQ-MS/MS of plasma)
Assay type: in vivo
Details: male, Sprague-Dawley; rat plasma, single oral gavage of CP extract 10.5 g/kg, n=6, mean ± SD
value.type: AUC(0-inf)
Kindly write the number and append the unit.

[Q] Quickly give me recorded AUC(0-inf) for O=c1c(O)c(-c2ccc(O)c(O)c2)oc2cc(O)cc(O)c12 [Quercetin, quercetin]
[A] 0.0917 µg·h/mL

[Q] Give the measured AUC(0-inf) for O=c1c(O)c(-c2ccc(O)cc2)oc2cc(O)cc(O)c12 [Kaempferol, kaempferol]
[A] 0.325 µg·h/mL

[Q] Hello, please tell me recorded AUC(0-inf) for this one: O=C(O)[C@H]1O[C@@H](Oc2c(-c3ccc(O)c(O)c3)oc3cc(O)cc(O)c3c2=O)[C@H](O)[C@@H](O)[C@@H]1O [Quercetin-3-O-glucuronide, quercetin-3-O-glucuronide]
[A] 13.5 µg·h/mL

[Q] Identify measured AUC(0-inf) associated with O=C(/C=C/c1ccc(O)c(O)c1)O[C@@H]1C[C@](O)(C(=O)O)C[C@@H](O)[C@H]1O [Chlorogenic acid, chlorogenic acid]
[A] 3.58 µg·h/mL

[Q] Look up and report measured AUC(0-inf) for this entry: O=C(/C=C/c1ccc(O)c(O)c1)O[C@@H]1C[C@@](O)(C(=O)O)C[C@@H](O)[C@@H]1O [Neochlorogenic acid, neochlorogenic acid]
[A] 2.47 µg·h/mL

###

Test: Pharmacokinetic study in rats after oral administration of the CP extract (UPLC–TQ-MS/MS of plasma)
Assay type: in vivo
Conditions: male, Sprague-Dawley; rat plasma, single oral gavage of CP extract 10.5 g/kg, n=6, mean ± SD, non-compartmental
Could you please report measured Cmax for the items listed next?
State just the number; it will be interpreted in ng/mL.

[Q] Indicate its recorded Cmax; the compound in question is O=C(O)[C@H]1O[C@@H](Oc2c(-c3ccc(O)c(O)c3)oc3cc(O)cc(O)c3c2=O)[C@H](O)[C@@H](O)[C@@H]1O [Quercetin-3-O-glucuronide, quercetin-3-O-glucuronide]
[A] 3710

[Q] Give Cmax for the following compound: O=C(/C=C/c1ccc(O)c(O)c1)O[C@@H]1C[C@@](O)(C(=O)O)C[C@@H](O)[C@@H]1O
[A] 4330

[Q] State, in one line, measured Cmax of O=C(/C=C/c1ccc(O)c(O)c1)O[C@@H]1C[C@](O)(C(=O)O)C[C@@H](O)[C@H]1O
[A] 4170

[Q] Identify Cmax associated with the compound O=c1c(O)c(-c2ccc(O)cc2)oc2cc(O)cc(O)c12
[A] 122

[Q] Please report Cmax for the following compound: O=c1c(O)c(-c2ccc(O)c(O)c2)oc2cc(O)cc(O)c12
[A] 28.6

###

Experiment: Pharmacokinetic study in rats after oral administration of the CP extract (UPLC–TQ-MS/MS of plasma)
Type: in vivo
Details: male, Sprague-Dawley; rat plasma, single oral gavage of CP extract 10.5 g/kg, n=6, mean ± SD
value.type: log10(AUC(0-t)) (log10 of the value in ng·h/mL)
A difference of one corresponds to tenfold AUC(0-t); all values are log10 with AUC(0-t) in ng·h/mL.

[Q] Give the value of log10(AUC(0-t)) reported for the following: O=C(/C=C/c1ccc(O)c(O)c1)O[C@@H]1C[C@](O)(C(=O)O)C[C@@H](O)[C@H]1O
[A] 3.52

[Q] Output measured log10(AUC(0-t)) for this item: O=C(O)[C@H]1O[C@@H](Oc2c(-c3ccc(O)c(O)c3)oc3cc(O)cc(O)c3c2=O)[C@H](O)[C@@H](O)[C@@H]1O [Quercetin-3-O-glucuronide, quercetin-3-O-glucuronide]
[A] 4.04

[Q] // Input: O=C(/C=C/c1ccc(O)c(O)c1)O[C@@H]1C[C@@](O)(C(=O)O)C[C@@H](O)[C@@H]1O . Output its log10(AUC(0-t)) only.
[A] 3.39

[Q] Annotate the compound O=c1c(O)c(-c2ccc(O)c(O)c2)oc2cc(O)cc(O)c12 with its measured log10(AUC(0-t)).
[A] 1.90

[Q] Retrieve log10(AUC(0-t)) measured for O=c1c(O)c(-c2ccc(O)cc2)oc2cc(O)cc(O)c12 and print it.
[A] 2.38

###

Assay: Pharmacokinetic study in rats after oral administration of the CP extract (UPLC–TQ-MS/MS of plasma)
Type: in vivo
Settings: male, Sprague-Dawley; rat plasma, single oral gavage of CP extract 10.5 g/kg, n=6, mean ± SD
Task for the reader: assign each of the following compounds its reported Tmax.
In your response, put the unit directly after the numeric value.

[Q] Give a short answer stating reported Tmax for O=C(/C=C/c1ccc(O)c(O)c1)O[C@@H]1C[C@](O)(C(=O)O)C[C@@H](O)[C@H]1O .
[A] 23.4 min

[Q] Read off the recorded Tmax for O=c1c(O)c(-c2ccc(O)c(O)c2)oc2cc(O)cc(O)c12
[A] 27.6 min

[Q] Give Tmax for O=C(O)[C@H]1O[C@@H](Oc2c(-c3ccc(O)c(O)c3)oc3cc(O)cc(O)c3c2=O)[C@H](O)[C@@H](O)[C@@H]1O [Quercetin-3-O-glucuronide, quercetin-3-O-glucuronide]
[A] 19.8 min

[Q] Specify reported Tmax for the compound shown: O=C(/C=C/c1ccc(O)c(O)c1)O[C@@H]1C[C@@](O)(C(=O)O)C[C@@H](O)[C@@H]1O
[A] 19.2 min

[Q] Return Tmax (reported value) for this compound: O=c1c(O)c(-c2ccc(O)cc2)oc2cc(O)cc(O)c12
[A] 40.2 min
